B1: KRT15 (parent)
chain: SNFHINVEESVDGQVVSSHKREI

variants of: B1; experiment: protein stability index of a GFP-peptide fusion (GPS, HEK-293T) (PSI 1-6); higher = more stable; details: c terminus: native;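 further: lentivirally expressed fusions sorted by FACS into six bins by GFP to DsRed ratio, PSI derived from sequencing read proportions per bin multiplied by bin number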
Some variants, each annotated with its measured protein stability index.
property_name: protein stability index

>  <alteration>
G13H

>  <obs_value>
1.64

$$$$
>  <alteration>
S10V

>  <obs_value>
1.87

$$$$
>  <alteration>
G13V

>  <obs_value>
1.55

$$$$
>  <alteration>
H19S

>  <obs_value>
4.55

$$$$
>  <alteration>
E8F

>  <obs_value>
3.87

$$$$
>  <alteration>
G13L

>  <obs_value>
1.78

$$$$
>  <alteration>
G13E

>  <obs_value>
1.89

$$$$
>  <alteration>
V11R

>  <obs_value>
1.46

$$$$
>  <alteration>
E22G

>  <obs_value>
5.28

$$$$
>  <alteration>
F3P

>  <obs_value>
2.15

$$$$
>  <alteration>
E8G

>  <obs_value>
1.42

$$$$
